- MEASUREMENT PROTOCOL: solvent given as SMILES
- RUN CONDITIONS: in ClCCl
MEASUREMENT LABEL: emission maximum

[[record]]
molecule = "C(S/C=C/c1ccc(-c2ccc(/C=C/SC=C3CCCCCCC3)cc2)cc1)=C1CCCCCCC1"
measurement_label = "emission maximum"
result = "437 nm"

[[record]]
molecule = "CCn1c2cc(OC)ccc2c2c3nsnc3c3c4ccc(OC)cc4n(CC)c3c21"
measurement_label = "emission maximum"
result = "553 nm"

[[record]]
molecule = "CCCCCCOc1ccc2c(c1)-c1cc3c(cc1[Si]2(C)C)-c1ccccc1[Si]3(C)C"
measurement_label = "emission maximum"
result = "387 nm"

[[record]]
molecule = "CC1CCC(=CS/C=C/c2ccc(-c3ccc(/C=C/SC=C4CCC(C)CC4)cc3)cc2)CC1 (stereo not given)"
measurement_label = "emission maximum"
result = "432 nm"

[[record]]
molecule = "Cc1ccc(C2=C(c3ccc(C)cc3)c3cccc4c3c(cc3nc5ccccc5nc34)O2)cc1"
measurement_label = "emission maximum"
result = "559 nm"

[[record]]
molecule = "Brc1ccc(/C=C/c2cnc3ccccc3n2)cc1"
measurement_label = "emission maximum"
result = "455 nm"

[[record]]
molecule = "Brc1cc2nc3cc4c5c(cccc5c3nc2cc1Br)C(c1ccccc1)=C(c1ccccc1)O4"
measurement_label = "emission maximum"
result = "580 nm"

[[record]]
molecule = "COC(=O)c1cc(=O)n(C)c2cc(-c3ccc4c(c3)OCCO4)sc12"
measurement_label = "emission maximum"
result = "473 nm"

[[record]]
molecule = "COc1ccc(-c2c3cc4ccccc4cc3c(C#Cc3ccccc3)c3cc4ccccc4cc23)cc1"
measurement_label = "emission maximum"
result = "697 nm"

[[record]]
molecule = "C1=C(c2ccccc2)[Si](c2ccccc2)(c2ccccc2)c2ccccc21"
measurement_label = "emission maximum"
result = "400 nm"


---

- MEASUREMENT PROTOCOL: solvent given as SMILES
- RUN CONDITIONS: in CCCCCCC
Tag: Y if measured emission maximum is not below 500 nm, N if it is.

[[record]]
test_smiles = "c1cc2c3c(cccc3c1)-c1c-2c2ccccc2c2ccccc12"
group = "Y"

[[record]]
test_smiles = "CN(C)c1ccc(/C=C/c2ccc([N+](=O)[O-])c(O)c2)cc1"
group = "Y"

[[record]]
test_smiles = "C(=C\\c1cc(/C=C/c2ccc(N(c3ccccc3)c3ccccc3)cc2)nc(/C=C/c2ccc(N(c3ccccc3)c3ccccc3)cc2)n1)/c1ccc(N(c2ccccc2)c2ccccc2)cc1"
group = "N"

[[record]]
test_smiles = "c1cc2c3c(cccc3c1)-c1cc3c(ccc4ccccc43)cc1-2"
group = "N"

[[record]]
test_smiles = "CN(C)c1ccc(/C=C/C=C/c2ccc([N+](=O)[O-])c(O)c2)cc1"
group = "Y"

[[record]]
test_smiles = "CN(C)c1ccc(/C=C/c2cccnn2)cc1"
group = "N"


---

- MEASUREMENT PROTOCOL: solvent given as SMILES
- RUN CONDITIONS: in Cc1ccccc1
MEASUREMENT LABEL: emission maximum (nm)

[[record]]
molecule = "CCCCCCCCC1(CCCCCCCC)c2cc(C=O)ccc2-c2ccc(/C=C/c3ccc(N(c4ccccc4)c4ccccc4)cc3)cc21"
readout_number = 451

[[record]]
molecule = "COc1cc(C2=CC3=C(c4c(C)cc(C)cc4C)c4cc(-c5cc(OC)c(OC)c(OC)c5)c(-c5cc(OC)c(OC)c(OC)c5)n4[B-](F)(F)[N+]3=C2c2cc(OC)c(OC)c(OC)c2)cc(OC)c1OC"
readout_number = 677

[[record]]
molecule = "CC(C)(C)c1ccc2c(c1)c1cc(C(C)(C)C)ccc1n2-c1cc(-n2c3ccc(C(C)(C)C)cc3c3cc(C(C)(C)C)ccc32)c(-n2c3ccc(C(C)(C)C)cc3c3cc(C(C)(C)C)ccc32)c(C#N)c1-n1c2ccc(C(C)(C)C)cc2c2cc(C(C)(C)C)ccc21"
readout_number = 456

[[record]]
molecule = "N#Cc1c(-n2c3ccc(-c4ccccc4)cc3c3cc(-c4ccccc4)ccc32)c(-n2c3ccccc3c3ccccc32)c(-n2c3ccc(-c4ccccc4)cc3c3cc(-c4ccccc4)ccc32)c(-n2c3ccccc3c3ccccc32)c1-n1c2ccc(-c3ccccc3)cc2c2cc(-c3ccccc3)ccc21"
readout_number = 492

[[record]]
molecule = "CCCCC1(c2ccccc2)Nc2c(-c3ccc(N(C)c4ccccc4)cc3)ccc(-c3ccc(N(C)c4ccccc4)cc3)c2N=C1c1ccccc1 (configuration not stated)"
readout_number = 573

[[record]]
molecule = "c1ccc(-c2nc(-c3ccccc3)nc(-c3cc(-n4c5ccccc5c5ccccc54)c(-n4c5ccccc5c5ncccc54)c(-n4c5ccccc5c5ccccc54)c3)n2)cc1"
readout_number = 447.02

[[record]]
molecule = "O=C1/C(=C\\c2ccc(N(c3ccccc3)c3ccccc3)cc2)S(=O)(=O)c2ccccc21"
readout_number = 587

[[record]]
molecule = "c1ccc(-c2nc(-c3ccccc3)nc(-c3ccc(-n4c5ccccc5c5ccc6c7ccccc7n(-c7ccccc7)c6c54)cc3)n2)cc1"
readout_number = 459

[[record]]
molecule = "N#Cc1nc2c3ccc(-n4c5ccccc5c5ccccc54)cc3c3cc(-n4c5ccccc5c5ccccc54)ccc3c2nc1C#N"
readout_number = 531

[[record]]
molecule = "COC1(OC)C2(Cl)c3nc4cc(-c5cccs5)ccc4nc3C1(Cl)C1C[C@H]3[C@@H](CC12)C1(Cl)c2nc4ccc(-c5cccs5)cc4nc2C3(Cl)C1(OC)OC (some centres not stated)"
readout_number = 427

[[record]]
molecule = "CC(C)(C)c1ccc2c(c1)c1cc(C(C)(C)C)ccc1n2-c1ccc(C#Cc2cccc(C#Cc3ccc(-n4c5ccc(C(C)(C)C)cc5c5cc(C(C)(C)C)ccc54)cc3)c2)cc1"
readout_number = 379

[[record]]
molecule = "COc1ccccc1-c1nc2c3ccccc3c3ccccc3c2n1-c1ccc(C)cc1"
readout_number = 371


# credit: the Deep4Chem optical property database
